- procedure_text: in vivo
- Set-up: species or system mice
- experimental_parameters: male, NOD.Cg-Rag1tm1Mom Il2rgtm1Wjl/SzJ (NRG), mouse, iv, total radioactivity, Biodistribution: Lungs
Where a SMILES comes first, the peptide text is derived from it. Bridges are numbered along the chain shown (N, C = ends). [ ]: non-standard residue; d: D form. The star is where a group is joined. X3 = O=C(O)CN1CCN(CC(=O)O)CCN(CC(=O)N[C@@H](CS(=O)(=O)O)C(=O)N[C@@H](CCCCNC(=O)CCCc2ccc(Br)cc2)C(=O)*)CCN(CC(=O)O)CC1; X5 = O=C(O)CN1CCN(CC(=O)O)CCN(CC(=O)N[C@@H](CS(=O)(=O)O)C(=O)N[C@@H](CCCCNC(=O)CCCc2ccc(Cl)cc2)C(=O)*)CCN(CC(=O)O)CC1; 2Nal = N[C@@H](Cc1ccc2ccccc2c1)C(=O)O; Lys(iPr) = CC(C)NCCCC[C@H](N)C(=O)O
Answer each item with its documented tissue uptake at 3 h.
Please state the figure in %ID/g; there is no need to write the unit.

// query tissue uptake at 3 h value for entry CC(C)NCCCC[C@H](NC(=O)[C@H]1CCC(=O)N[C@@H](CCCCNC(=O)[C@H](CCCCNC(=O)CCCc2ccc(Br)cc2)NC(=O)[C@H](CS(=O)(=O)O)NC(=O)CN2CCN(CC(=O)O)CCN(CC(=O)O)CCN(CC(=O)O)CC2)C(=O)N[C@@H](Cc2ccc(O)cc2)C(=O)N[C@@H](CCCCNC(C)C)C(=O)N[C@H](CCCNC(=N)N)C(=O)N[C@@H](Cc2ccc3ccccc3c2)C(=O)N[C@H](C)C(=O)N1)C(N)=O [[^177Lu]Lu-BL34L20, metal not drawn] (K(X3)Y[Lys(iPr)][dR][2Nal][dA][dE][Lys(iPr)]-NH2; lactam N-7) 6.6

// query tissue uptake at 3 h value for entry CC(C)NCCCC[C@H](NC(=O)[C@H]1CCC(=O)N[C@@H](CCCCNC(=O)[C@H](CCCCNC(=O)CCCc2ccc(Cl)cc2)NC(=O)[C@H](CS(=O)(=O)O)NC(=O)CN2CCN(CC(=O)O)CCN(CC(=O)O)CCN(CC(=O)O)CC2)C(=O)N[C@@H](Cc2ccc(O)cc2)C(=O)N[C@@H](CCCCNC(C)C)C(=O)N[C@H](CCCNC(=N)N)C(=O)N[C@@H](Cc2ccc3ccccc3c2)C(=O)N[C@H](C)C(=O)N1)C(N)=O [[^68Ga]Ga-BL34L16, metal not drawn] (K(X5)Y[Lys(iPr)][dR][2Nal][dA][dE][Lys(iPr)]-NH2; lactam N-7) 2.85

###

- procedure_text: in vivo
- Design: species or system mice
- experimental_parameters: male, NOD.Cg-Rag1tm1Mom Il2rgtm1Wjl/SzJ (NRG), mouse, iv, total radioactivity, Biodistribution: Heart
Where a SMILES comes first, the peptide text is derived from it. Bridges are numbered along the chain shown (N, C = ends). Side-chain parts run from the residue outwards. [ ]: non-standard residue; d: D form. The star is where a group is joined. X4 = O=C(O)CN1CCN(CC(=O)O)CCN(CC(=O)N[C@@H](CS(=O)(=O)O)C(=O)NCCCC[C@H](NC(=O)CNC(=O)CCCc2ccc(Cl)cc2)C(=O)*)CCN(CC(=O)O)CC1; X5 = O=C(O)CN1CCN(CC(=O)O)CCN(CC(=O)N[C@@H](CS(=O)(=O)O)C(=O)N[C@@H](CCCCNC(=O)CCCc2ccc(Cl)cc2)C(=O)*)CCN(CC(=O)O)CC1; X1 = O=C(O)CN1CCN(CC(=O)O)CCN(CC(=O)N[C@@H](CS(=O)(=O)O)C(=O)N[C@@H](CCCCNC(=O)CCCc2ccc(I)cc2)C(=O)*)CCN(CC(=O)O)CC1; X6 = COc1ccc(CCCC(=O)NCCCC[C@H](NC(=O)[C@H](CS(=O)(=O)O)NC(=O)CN2CCN(CC(=O)O)CCN(CC(=O)O)CCN(CC(=O)O)CC2)C(=O)*)cc1; X7 = COc1ccc(CCCC(=O)NCCCC[C@H](NC(=O)CN2CCN(CC(=O)O)CCN(CC(=O)O)CCN(CC(=O)O)CC2)C(=O)*)cc1; DOTA = O=C(O)CN1CCN(CC(=O)O)CCN(CC(=O)*)CCN(CC(=O)O)CC1; NMeLys(iPr) = CN[C@@H](CCCCNC(C)C)C(=O)O; 2Nal = N[C@@H](Cc1ccc2ccccc2c1)C(=O)O; Lys(iPr) = CC(C)NCCCC[C@H](N)C(=O)O; Cya = N[C@@H](CS(=O)(=O)O)C(=O)O
Please use Criterion met whenever tissue uptake at 1 h is not below 3 %ID/g, and Criterion not met whenever it is.

Exam item: decide whether the reported tissue uptake at 1 h for COc1ccc(CCCC(=O)NCCCC[C@H](NC(=O)CN2CCN(CC(=O)O)CCN(CC(=O)O)CCN(CC(=O)O)CC2)C(=O)N[C@@H](CS(=O)(=O)O)C(=O)NCCCC[C@@H]2NC(=O)CC[C@H](C(=O)N[C@@H](CCCCNC(C)C)C(N)=O)NC(=O)[C@@H](C)NC(=O)[C@H](Cc3ccc4ccccc4c3)NC(=O)[C@@H](CCCNC(=N)N)NC(=O)[C@H](CCCCNC(C)C)NC(=O)[C@H](Cc3ccc(O)cc3)NC2=O)cc1 [[68Ga]Ga-BL34L6, metal not drawn] (K([Cya-X7])Y[Lys(iPr)][dR][2Nal][dA][dE][Lys(iPr)]-NH2; lactam N-7) is at least 3 %ID/g. Criterion not met

Exam item: decide whether the reported tissue uptake at 1 h for CC(C)NCCCC[C@H](NC(=O)[C@@H]1CCSc2c3cccc([N+](=O)[O-])c3cn2[C@@H](CCCCNC(=O)[C@H](CS(=O)(=O)O)NC(=O)CN2CCN(CC(=O)O)CCN(CC(=O)O)CCN(CC(=O)O)CC2)C(=O)CC(Cc2ccc(O)cc2)C(=O)N[C@@H](CCCCNC(C)C)C(=O)N[C@H](CCCNC(=N)N)C(=O)N[C@@H](Cc2ccc3ccccc3c2)C(=O)N[C@H](C)C(=O)N1)C(N)=O (some centres unmarked) [[^68Ga]Ga-3NOPA-BL34L2, metal not drawn] is at least 3 %ID/g. Criterion not met

Exam item: decide whether the reported tissue uptake at 1 h for CC(C)NCCCC[C@H](NC(=O)[C@H]1CCC(=O)N[C@@H](CCCCNC(=O)[C@H](CS(=O)(=O)O)NC(=O)CN2CCN(CC(=O)O)CCN(CC(=O)O)CCN(CC(=O)O)CC2)C(=O)N[C@@H](Cc2ccc(O)cc2)C(=O)N(C)[C@@H](CCCCNC(C)C)C(=O)N[C@H](CCCNC(=N)N)C(=O)N[C@@H](Cc2ccc3ccccc3c2)C(=O)N[C@H](C)C(=O)N1)C(N)=O [[^68Ga]Ga-BL34N1, metal not drawn] (K([Cya-DOTA])Y[NMeLys(iPr)][dR][2Nal][dA][dE][Lys(iPr)]-NH2; lactam N-7) is at least 3 %ID/g. Criterion not met

Exam item: decide whether the reported tissue uptake at 1 h for CC(C)NCCCC[C@H](NC(=O)[C@H]1CCC(=O)N[C@@H](CCCCNC(=O)[C@H](CCCCNC(=O)[C@H](CS(=O)(=O)O)NC(=O)CN2CCN(CC(=O)O)CCN(CC(=O)O)CCN(CC(=O)O)CC2)NC(=O)CNC(=O)CCCc2ccc(Cl)cc2)C(=O)N[C@@H](Cc2ccc(O)cc2)C(=O)N[C@@H](CCCCNC(C)C)C(=O)N[C@H](CCCNC(=N)N)C(=O)N[C@@H](Cc2ccc3ccccc3c2)C(=O)N[C@H](C)C(=O)N1)C(N)=O [[68Ga]Ga-BL34T1, metal not drawn] (K(X4)Y[Lys(iPr)][dR][2Nal][dA][dE][Lys(iPr)]-NH2; lactam N-7) is at least 3 %ID/g. Criterion met

Exam item: decide whether the reported tissue uptake at 1 h for CC(C)NCCCC[C@H](NC(=O)[C@H]1CCC(=O)N[C@@H](CCCCNC(=O)[C@H](CCCCNC(=O)CCCc2ccc(I)cc2)NC(=O)[C@H](CS(=O)(=O)O)NC(=O)CN2CCN(CC(=O)O)CCN(CC(=O)O)CCN(CC(=O)O)CC2)C(=O)N[C@@H](Cc2ccc(O)cc2)C(=O)N[C@@H](CCCCNC(C)C)C(=O)N[C@H](CCCNC(=N)N)C(=O)N[C@@H](Cc2ccc3ccccc3c2)C(=O)N[C@H](C)C(=O)N1)C(N)=O [[^68Ga]Ga-BL34L11, metal not drawn] (K(X1)Y[Lys(iPr)][dR][2Nal][dA][dE][Lys(iPr)]-NH2; lactam N-7) is at least 3 %ID/g. Criterion met

Exam item: decide whether the reported tissue uptake at 1 h for CC(C)NCCCC[C@H](NC(=O)[C@H]1CCC(=O)N[C@@H](CCCCNC(=O)[C@H](CCCCNC(=O)CCCc2ccc(Cl)cc2)NC(=O)[C@H](CS(=O)(=O)O)NC(=O)CN2CCN(CC(=O)O)CCN(CC(=O)O)CCN(CC(=O)O)CC2)C(=O)N[C@@H](Cc2ccc(O)cc2)C(=O)N[C@@H](CCCCNC(C)C)C(=O)N[C@H](CCCNC(=N)N)C(=O)N[C@@H](Cc2ccc3ccccc3c2)C(=O)N[C@H](C)C(=O)N1)C(N)=O [[^68Ga]Ga-BL34L16, metal not drawn] (K(X5)Y[Lys(iPr)][dR][2Nal][dA][dE][Lys(iPr)]-NH2; lactam N-7) is at least 3 %ID/g. Criterion not met

Exam item: decide whether the reported tissue uptake at 1 h for COc1ccc(CCCC(=O)NCCCC[C@H](NC(=O)[C@H](CS(=O)(=O)O)NC(=O)CN2CCN(CC(=O)O)CCN(CC(=O)O)CCN(CC(=O)O)CC2)C(=O)NCCCC[C@@H]2NC(=O)CC[C@H](C(=O)N[C@@H](CCCCNC(C)C)C(N)=O)NC(=O)[C@@H](C)NC(=O)[C@H](Cc3ccc4ccccc4c3)NC(=O)[C@@H](CCCNC(=N)N)NC(=O)[C@H](CCCCNC(C)C)NC(=O)[C@H](Cc3ccc(O)cc3)NC2=O)cc1 [[^68Ga]Ga-BL34L7, metal not drawn] (K(X6)Y[Lys(iPr)][dR][2Nal][dA][dE][Lys(iPr)]-NH2; lactam N-7) is at least 3 %ID/g. Criterion not met
